These entries and their values trace back to ChEMBL document CHEMBL1129785.

// Ki collected for Human immunodeficiency virus type 1 protease (Human immunodeficiency virus 1)

Here is how some compounds turned out for Ki.
[
  {
    "smiles-notation": "CSCC[C@@H]1[C@H](O)[C@@H](O)[C@@H](CCSC)N(Cc2ccccc2)C(=O)N1Cc1ccccc1",
    "Ki": "1100 nM"
  },
  {
    "smiles-notation": "O=C1N(Cc2ccccc2)[C@H](Cc2ccccc2)[C@H](O)[C@@H](O)[C@@H](Cc2ccccc2)N1Cc1ccccc1",
    "Ki": "3.4 nM"
  },
  {
    "smiles-notation": "O=C1N(Cc2ccc(CO)cc2)[C@H](Cc2ccncc2)[C@H](O)[C@@H](O)[C@@H](Cc2ccncc2)N1Cc1ccc(CO)cc1",
    "Ki": "4.8 nM"
  },
  {
    "smiles-notation": "O=C1N(Cc2ccc(CO)cc2)[C@H](CC2CCCCC2)[C@H](O)[C@@H](O)[C@@H](CC2CCCCC2)N1Cc1ccc(CO)cc1",
    "Ki": "32 nM"
  },
  {
    "smiles-notation": "COc1ccccc1C[C@@H]1[C@H](O)[C@@H](O)[C@@H](Cc2ccccc2OC)N(CC2CC2)C(=O)N1CC1CC1",
    "Ki": "65 nM"
  },
  {
    "smiles-notation": "O=C1N(Cc2ccccc2)[C@H](Cc2ccncc2)[C@H](O)[C@@H](O)[C@@H](Cc2ccncc2)N1Cc1ccccc1",
    "Ki": "22 nM"
  },
  {
    "smiles-notation": "CN(C)c1ccc(C[C@@H]2[C@H](O)[C@@H](O)[C@@H](Cc3ccc(N(C)C)cc3)N(Cc3ccccc3)C(=O)N2Cc2ccccc2)cc1",
    "Ki": "46 nM"
  },
  {
    "smiles-notation": "O=C1N(Cc2ccc(CO)cc2)[C@H](Cc2ccc(F)c(F)c2)[C@H](O)[C@@H](O)[C@@H](Cc2ccc(F)c(F)c2)N1Cc1ccc(CO)cc1",
    "Ki": "0.47 nM"
  },
  {
    "smiles-notation": "COc1ccc(C[C@@H]2[C@H](O)[C@@H](O)[C@@H](Cc3ccc(OC)cc3)N(Cc3ccccc3)C(=O)N2Cc2ccccc2)cc1",
    "Ki": "8.6 nM"
  },
  {
    "smiles-notation": "CSc1cccc(C[C@@H]2[C@H](O)[C@@H](O)[C@@H](Cc3cccc(SC)c3)N(Cc3ccccc3)C(=O)N2Cc2ccccc2)c1",
    "Ki": "2.5 nM"
  }
]

Fill in reported Ki for this entry: "O=C1N(Cc2ccccc2)[C@H](Cc2ccc3ccccc3c2)[C@H](O)[C@@H](O)[C@@H](Cc2ccc3ccccc3c2)N1Cc1ccccc1"
9.8 nM

Fill in reported Ki for this entry: "O=C1N(Cc2ccccc2)[C@H](Cc2ccoc2)[C@H](O)[C@@H](O)[C@@H](Cc2ccoc2)N1Cc1ccccc1"
8.4 nM

Fill in reported Ki for this entry: "Nc1ccc(C[C@@H]2[C@H](O)[C@@H](O)[C@@H](Cc3ccc(N)cc3)N(Cc3ccccc3)C(=O)N2Cc2ccccc2)cc1"
7.1 nM

Fill in reported Ki for this entry: "O=C1N(Cc2ccccc2)[C@H](CCc2ccccc2)[C@H](O)[C@@H](O)[C@@H](CCc2ccccc2)N1Cc1ccccc1"
320 nM

====

# assay-target: Human immunodeficiency virus type 1 protease (Human immunodeficiency virus 1)
# protocol-text: Ability to increase whole-cell antiviral efficacy through better translation defined as the ratio between IC90 and Ki
# Type: functional
Documented Ratio across a set of molecules

Here is how some molecules turned out for Ratio.
[
  {
    "smiles-notation": "O=C1N(CC2CC2)[C@H](Cc2ccc(F)cc2)[C@H](O)[C@@H](O)[C@@H](Cc2ccc(F)cc2)N1CC1CC1",
    "assay-target": "Human immunodeficiency virus type 1 protease (Human immunodeficiency virus 1)",
    "Ratio": 550
  },
  {
    "smiles-notation": "CN(C)c1ccc(C[C@@H]2[C@H](O)[C@@H](O)[C@@H](Cc3ccc(N(C)C)cc3)N(Cc3ccccc3)C(=O)N2Cc2ccccc2)cc1",
    "assay-target": "Human immunodeficiency virus type 1 protease (Human immunodeficiency virus 1)",
    "Ratio": 60
  },
  {
    "smiles-notation": "COc1cccc(C[C@@H]2[C@H](O)[C@@H](O)[C@@H](Cc3cccc(OC)c3)N(Cc3ccc(CO)cc3)C(=O)N2Cc2ccc(CO)cc2)c1",
    "assay-target": "Human immunodeficiency virus type 1 protease (Human immunodeficiency virus 1)",
    "Ratio": 340
  },
  {
    "smiles-notation": "O=C1N(Cc2ccccc2)[C@H](Cc2ccccc2O)[C@H](O)[C@@H](O)[C@@H](Cc2ccccc2O)N1Cc1ccccc1",
    "assay-target": "Human immunodeficiency virus type 1 protease (Human immunodeficiency virus 1)",
    "Ratio": 185
  },
  {
    "smiles-notation": "O=C1N(CC2CC2)[C@H](Cc2ccc3ccccc3c2)[C@H](O)[C@@H](O)[C@@H](Cc2ccc3ccccc3c2)N1CC1CC1",
    "assay-target": "Human immunodeficiency virus type 1 protease (Human immunodeficiency virus 1)",
    "Ratio": 790
  }
]

Fill in reported Ratio for this entry: "O=C1N(Cc2ccccc2)[C@H](Cc2ccoc2)[C@H](O)[C@@H](O)[C@@H](Cc2ccoc2)N1Cc1ccccc1"
920

Fill in reported Ratio for this entry: "O=C1N(Cc2ccccc2)[C@H](Cc2ccc3ccccc3c2)[C@H](O)[C@@H](O)[C@@H](Cc2ccc3ccccc3c2)N1Cc1ccccc1"
340

Fill in reported Ratio for this entry: "COc1cc(C[C@@H]2[C@H](O)[C@@H](O)[C@@H](Cc3cc(OC)cc(OC)c3)N(CC3CC3)C(=O)N2CC2CC2)cc(OC)c1"
140

Fill in reported Ratio for this entry: "COc1ccccc1C[C@@H]1[C@H](O)[C@@H](O)[C@@H](Cc2ccccc2OC)N(Cc2ccccc2)C(=O)N1Cc1ccccc1"
150

Fill in reported Ratio for this entry: "O=C1N(Cc2ccccc2)[C@H](Cc2ccc(O)cc2)[C@H](O)[C@@H](O)[C@@H](Cc2ccc(O)cc2)N1Cc1ccccc1"
170

Fill in reported Ratio for this entry: "O=C1N(Cc2ccccc2)[C@H](Cc2ccc3c(c2)OCO3)[C@H](O)[C@@H](O)[C@@H](Cc2ccc3c(c2)OCO3)N1Cc1ccccc1"
385

Fill in reported Ratio for this entry: "COc1cccc(C[C@@H]2[C@H](O)[C@@H](O)[C@@H](Cc3cccc(OC)c3)N(Cc3ccccc3)C(=O)N2Cc2ccccc2)c1"
75

Fill in reported Ratio for this entry: "O=C1N(Cc2ccc(CO)cc2)[C@H](Cc2ccc(F)cc2)[C@H](O)[C@@H](O)[C@@H](Cc2ccc(F)cc2)N1Cc1ccc(CO)cc1"
230

Fill in reported Ratio for this entry: "COc1ccc(C[C@@H]2[C@H](O)[C@@H](O)[C@@H](Cc3ccc(OC)cc3)N(CC3CC3)C(=O)N2CC2CC2)cc1"
110
